Target: Pdr3 (UniProt P33200)
Sequence: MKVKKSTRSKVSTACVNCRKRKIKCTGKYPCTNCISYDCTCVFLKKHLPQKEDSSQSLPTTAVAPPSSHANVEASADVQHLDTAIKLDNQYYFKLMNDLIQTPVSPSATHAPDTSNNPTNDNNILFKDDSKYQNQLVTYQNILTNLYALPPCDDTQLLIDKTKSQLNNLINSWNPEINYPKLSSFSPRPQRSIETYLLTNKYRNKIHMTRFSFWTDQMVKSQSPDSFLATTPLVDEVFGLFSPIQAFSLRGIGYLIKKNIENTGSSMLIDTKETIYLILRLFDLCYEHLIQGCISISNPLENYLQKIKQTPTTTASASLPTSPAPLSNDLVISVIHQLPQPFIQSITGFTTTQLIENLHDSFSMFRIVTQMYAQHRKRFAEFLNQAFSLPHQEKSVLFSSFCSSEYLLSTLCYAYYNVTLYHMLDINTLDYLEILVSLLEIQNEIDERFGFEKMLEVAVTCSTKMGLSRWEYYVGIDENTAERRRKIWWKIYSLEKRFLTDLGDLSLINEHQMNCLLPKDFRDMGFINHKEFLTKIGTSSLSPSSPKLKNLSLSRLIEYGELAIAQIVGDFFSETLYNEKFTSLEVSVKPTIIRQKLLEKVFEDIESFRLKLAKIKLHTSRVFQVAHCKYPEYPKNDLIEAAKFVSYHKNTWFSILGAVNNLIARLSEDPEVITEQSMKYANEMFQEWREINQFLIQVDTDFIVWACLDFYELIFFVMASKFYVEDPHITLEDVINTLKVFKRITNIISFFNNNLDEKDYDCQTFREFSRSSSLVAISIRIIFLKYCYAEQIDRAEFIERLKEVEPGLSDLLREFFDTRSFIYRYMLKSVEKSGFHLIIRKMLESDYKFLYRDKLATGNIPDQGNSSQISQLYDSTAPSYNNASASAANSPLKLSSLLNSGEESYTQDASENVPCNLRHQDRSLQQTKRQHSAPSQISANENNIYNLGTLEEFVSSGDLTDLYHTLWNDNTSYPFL
Experiment: PBM E-score (8-mer binding enrichment) (E-score (-0.5 to 0.5)); higher = stronger / more preferred TF binding
Settings: protein concentration: 200 nM; construct: GST-full length
In all, about 33,000 sequences were measured (“E-score (-0.5 to 0.5)”: median about -0.035, highest 2% from about 0.35 on). Shown is part of a subset that was picked to be rich in the highest values.

| sequenceCode | PBM E-score |
| --- | --- |
| AACGGAGA | 0.243 |
| ATCTAGAG | -0.177 |
| AGGAGAAT | -0.00643 |
| CTCTTCTC | -0.18 |
| AAGTTCAG | -0.098 |
| CGCGCGCC | 0.241 |
| ACCGCGCG | 0.397 |
| ATCGACCA | -0.176 |
| ACCGGGAC | 0.318 |
| TCGCGGAA | 0.404 |
| CCGGGTCG | 0.378 |
| TTGCGAAA | 0.119 |
| ACCGCGCC | 0.128 |
| AGGCAGCA | -0.0599 |
| CCCGCGCC | 0.265 |
| CACTCCTA | -0.112 |
| TACGGAAA | 0.402 |
| ACCGGGAT | 0.357 |
| AGCCGGGA | 0.3 |
| GCGGGTCC | 0.243 |
| ACGGGTCG | 0.227 |
| TAGCCGGA | 0.372 |
| ACGGCTAG | -0.152 |
| CCCGGGCA | 0.375 |
| ACCGCGCT | 0.139 |
| AGAGGGGC | -0.138 |
| GCGCGGAA | 0.464 |
| AACGGGAG | 0.179 |
| TACGGGAA | 0.261 |
| CGTGAGGA | -0.063 |
| CGGTTAAA | 0.0999 |
| CGAGCTGA | 0.143 |
| GCTAGAGC | -0.272 |
| TCGCGGCA | 0.174 |
| GACGGACA | 0.335 |
| GACGGGAA | 0.203 |
| AGCCCGAG | -0.044 |
| GCCGCGCA | 0.188 |
| CACTCGCG | 0.0224 |
| CGCGCGCA | 0.347 |
| AAGCCTGT | 0.028 |
| CGCGCGCG | 0.372 |
| CTCCGGGA | 0.399 |
| CCCGCGCG | 0.382 |
| ACTACCGA | -0.0714 |
| AACGGAAA | 0.464 |
| CCACTGCA | -0.0534 |
| CGCCCGAA | 0.117 |
| CCGGGTCC | 0.365 |
| AGCATTTG | -0.0766 |
| CGTCGTAA | -0.0777 |
| GGAAGACC | 0.202 |
| TCCGCGCA | 0.397 |
| ACGGGTCC | 0.186 |
